Overview of reported melting point across a group of compounds:

Below are worked cases with known answers.
- Compound: "Cl.O/N=C/Nc1ccc(N2CCN(C3CCCCC3)CC2)c(F)c1 [Compound 106]"
  Measured Result: "207 °C (dec.)"
- Compound: "O/N=C/Nc1ccc(N2CCC3(CC2)OCCO3)c(Cl)c1 [Compound 35]"
  Measured Result: "174 to 176 °C"
- Compound: "CCN1CCN(c2ccc(N/C=N/O)cc2Cl)CC1 [Compound 74]"
  Measured Result: "207 to 209 °C"
- Compound: "Cl.OCCN1CCN(c2ccc(N/C=N/O)cc2)CC1 [Compound 79]"
  Measured Result: "170 °C (dec.)"
- Compound: "O/N=C/Nc1ccc(N2CCN(c3ccccn3)CC2)c(Cl)c1 [Compound 131]"
  Measured Result: "94 to 96 °C"
- Compound: "Cc1cc(N2CCC(CCO)CC2)ccc1N/C=N/O [Compound 58]"
  Measured Result: "152 to 154 °C"

Item: Cc1cc(N2CCCC3CCCCC32)ccc1N/C=N/O (stereo not shown) [Compound 46] | melting point: 154 to 156 °C

Item: CC(=O)N1CCN(c2ccc(N/C=N/O)cn2)CC1 [Compound 129] | melting point: 191 to 192 °C (dec.)

Item: CCN(CC)C(=O)C1CCCN(c2ccc(N/C=N/O)cc2C(F)(F)F)C1 (stereo not shown) [Compound 64] | melting point: 150 to 156 °C

Item: CCN1CCN(c2ccc(N/C=N/O)cc2Br)CC1 [Compound 75] | melting point: 204.5 to 206.5 °C

---

Parameter: melting point

- Mol: "O/N=C/Nc1ccc(N2CCN(C3CCCCC3)CC2)c(C(F)(F)F)c1"
  melting point: "93 to 96 °C"
- Mol: "COCCN(CCOC)c1ccc(N/C=N/O)cc1Cl"
  melting point: "95 to 96.5 °C"
- Mol: "COc1cc(N2CCOCC2)ccc1N/C=N/O"
  melting point: "189 to 190 °C (dec.)"
- Mol: "Cc1cc(N2CCC3(CC2)OCCO3)ccc1N/C=N/O"
  melting point: "147 to 150 °C"
- Mol: "O/N=C/Nc1ccc(N2CC=CCC2)c(C(F)(F)F)c1"
  melting point: "136.5 to 138 °C"

Item: OCCC1CCN(c2ccc(N/C=N/O)cc2F)CC1 | melting point: 172 to 176 °C

Item: O/N=C/Nc1ccc(N2CCCCCC2)c(Br)c1 | melting point: 103.5 to 105 °C

---

Overview of reported melting point across a group of molecules:

Below are worked cases with known answers.
- Molecule: "CCN1CCN(c2ccc(N/C=N/O)cc2F)CC1 [Compound 73]"
  Measured Result: "197 to 200 °C"
- Molecule: "Cc1cc(N2CC=CCC2)ccc1N/C=N/O [Compound 20]"
  Measured Result: "146 to 149 °C"
- Molecule: "CCN1CCN(c2ccc(N/C=N/O)cc2)CC1 [Compound 72]"
  Measured Result: "220 to 222 °C"

Item: Cl.O=C(CN1CCN(c2ccc(N/C=N/O)cc2)CC1)N1CCOCC1 [Compound 98] | melting point: 167 to 169 °C (dec.)

Item: Cl.O/N=C/Nc1ccc(N2CCN(CCN3CCCC3)CC2)c(C(F)(F)F)c1 [Compound 96] | melting point: 229 to 231 °C (dec.)

---

# Measurement Target: 20-HETE-Producing Enzyme derived from Human Renal Microsome
# Assay Info: Inhibitory action to 20-HETE-producing enzyme derived from human renal microsome
# Experimental Setup: human renal microsome fraction, tritium-arachidonic acid substrate, NADPH, 37° C., 1.5 hours, pH 7.4; read-out: IC50 (inhibition of 20-HETE production)
# Experimental: Inhibitory Action to 20-HETE-Producing Enzyme derived from Human Renal Microsome With regard to the compounds listed in the above table, their inhibitory actions to 20-HETE production were tested. This test was carried out in accordance with a method mentioned in J. Pharmacol. Exp. Ther., volume 268, page 474 (1994). […]
Overview of reported pIC50 across a group of compounds:
Answer as the number alone; pIC50 is minus log10 of concentration in mol/L.

Below are worked cases with known answers.
- Compound: "O/N=C/Nc1ccc(N2CCC3(CC2)OCCO3)cc1 [Compound 33]"
  Measured Result: 8.44
- Compound: "O/N=C/Nc1ccc(N2CC=CC2)c(Br)c1 [Compound 12]"
  Measured Result: 7.80
- Compound: "Cc1cc(N2CCN(C3CCCCC3)CC2)ccc1N/C=N/O.Cl [Compound 111]"
  Measured Result: 7.15
- Compound: "OCCC1CCN(c2ccc(N/C=N/O)cc2F)CC1 [Compound 55]"
  Measured Result: 7.47
- Compound: "O/N=C/Nc1ccc(N2CC=CCC2)c(F)c1 [Compound 15]"
  Measured Result: 8.41

Item: O=C(CN1CCN(c2ccc(N/C=N/O)cc2C(F)(F)F)CC1)N1CCOCC1 [Compound 103] | pIC50: 7.67

Item: OCCC1CCN(c2ccc(N/C=N/O)cc2)CC1 [Compound 54] | pIC50: 7.46

Item: Cl.OCCN1CCN(c2ccc(N/C=N/O)cc2Cl)CC1 [Compound 81] | pIC50: 7.63

---

# Measurement Target: 20-HETE-Producing Enzyme derived from Human Renal Microsome
# Assay Info: Inhibitory action to 20-HETE-producing enzyme derived from human renal microsome
# Experimental Setup: human renal microsome fraction, tritium-arachidonic acid substrate, NADPH, 37° C., 1.5 hours, pH 7.4; read-out: IC50 (inhibition of 20-HETE production)
Parameter: pIC50
Answer as the number alone; pIC50 is minus log10 of concentration in mol/L.

Below are worked cases with known answers.
- Molecule: "OCCN1CCN(c2ccc(N/C=N/O)cc2Br)CC1"
  Measured Result: 7.36
- Molecule: "CCN1CCN(c2ccc(N/C=N/O)cc2)CC1"
  Measured Result: 7.41
- Molecule: "Cl.O/N=C/Nc1ccc(N2CCN(C3CCCCC3)CC2)nc1"
  Measured Result: 7.04
- Molecule: "O/N=C/Nc1ccc(N2CCN(C3CCCCC3)CC2)c(Cl)c1"
  Measured Result: 7.38

Item: Cl.O=C(CN1CCN(c2ccc(N/C=N/O)cc2Cl)CC1)N1CCOCC1 | pIC50: 7.44

Item: O/N=C/Nc1ccc(N2CCCCCC2)c(Br)c1 | pIC50: 8.38

Item: Cc1cc(N2CCCC3CCCCC32)ccc1N/C=N/O (stereo not shown) | pIC50: 7.48

Item: O/N=C/Nc1ccc(N2CCC3(CC2)OCCO3)c(Cl)c1 | pIC50: 8.30

Item: O/N=C/Nc1ccc(N2CCC(O)CC2)c(F)c1 | pIC50: 8.49

Item: O/N=C/Nc1ccc(N2CC=CCC2)c(Cl)c1 | pIC50: 8.66

---

Overview of reported melting point across a group of molecules:

- Mol: "Cl.O=C(CN1CCN(c2ccc(N/C=N/O)cc2Cl)CC1)N1CCOCC1"
  melting point: "110 to 114 °C"
- Mol: "CCN1CCN(c2ccc(N/C=N/O)cc2C(F)(F)F)CC1"
  melting point: "158 to 159 °C"
- Mol: "CN(C)CCN1CCN(c2ccc(N/C=N/O)cc2)CC1.Cl"
  melting point: "188 to 190 °C (dec.)"
- Mol: "O/N=C/Nc1ccc(N2CC=CC2)c(Cl)c1"
  melting point: "118 to 121 °C"
- Mol: "Cl.O/N=C/Nc1ccc(N2CCN(C3CCCCC3)CC2)nc1"
  melting point: "224 to 226 °C (dec.)"

Item: CN1CCN(c2ccc(N/C=N/O)cc2Cl)CC1 | melting point: 188 to 189 °C

Item: COCCN(CCOC)c1ccc(N/C=N/O)cc1 | melting point: 97 to 98 °C

Item: O/N=C/Nc1ccc(N2CCC(O)CC2)c(Cl)c1 | melting point: 93 to 97 °C

Item: O/N=C/Nc1ccc(N2CCSCC2)c(Br)c1 | melting point: 149 to 151 °C

Item: O/N=C/Nc1ccc(N2CCSCC2)c(Cl)c1 | melting point: 137 to 138.5 °C

---

Parameter: melting point

- Compound: "Cl.O/N=C/Nc1ccc(N2CCN(CCN3CCCC3)CC2)c(Cl)c1 [Compound 94]"
  melting point: "161 to 163 °C"
- Compound: "OCCC1CCN(c2ccc(N/C=N/O)cn2)CC1 [Compound 132]"
  melting point: "151 to 153 °C"
- Compound: "O/N=C/Nc1ccc(N2CCC3(CC2)OCCO3)c(F)c1 [Compound 34]"
  melting point: "165 to 167 °C"

Item: O/N=C/Nc1ccc(N2CCC(O)CC2)c(F)c1 [Compound 48] | melting point: 159 to 161 °C

---

Overview of reported pIC50 across a group of molecules:
# Measurement Target: 20-HETE-Producing Enzyme derived from Human Renal Microsome
# Assay Info: Inhibitory action to 20-HETE-producing enzyme derived from human renal microsome
# Experimental Setup: human renal microsome fraction, tritium-arachidonic acid substrate, NADPH, 37° C., 1.5 hours, pH 7.4; read-out: IC50 (inhibition of 20-HETE production)
Answer as the number alone; pIC50 is minus log10 of concentration in mol/L.

Below are worked cases with known answers.
- Mol: "Cc1cc(N2CCC(CCO)CC2)ccc1N/C=N/O"
  Parameter: "pIC50"
  Measured Result: 7.51
- Mol: "O/N=C/Nc1ccc(N2CCCCCCC2)c(F)c1"
  Parameter: "pIC50"
  Measured Result: 8.24
- Mol: "CC(=O)N1CCN(c2ccc(N/C=N/O)cn2)CC1"
  Parameter: "pIC50"
  Measured Result: 8.08
- Mol: "Cl.O/N=C/Nc1ccc(N2CCN(C3CCCCC3)CC2)c(Br)c1"
  Parameter: "pIC50"
  Measured Result: 6.53

Item: Cc1cc(N2CCC3(CC2)OCCO3)ccc1N/C=N/O | pIC50: 8.37

Each recorded value in this set is attributed to patent US7214714B2.
